test system: PEG-3; assay: Peg3 promoter luciferase inhibitors, potency, dose response, cell-based, HeLa, CREF/GAPDH counter-screen panel (AID 624167); details: HeLa PEG-Prom luciferase reporter, overnight, CREF/GAPDH counter-screens, run 1, dose range 1, individual replicate IC50 per panel
Values of IC50 strictly less than 7 µM map to label 1, and values of at least 7 µM map to label 0.

Ask: Strictly below 7 µM in IC50? CC(=O)Nc1cccc(-c2cc(NC=O)c3ncc(-c4ccc(C(C)=O)cc4)n3c2)c1
Result: label 1

Ask: Strictly below 7 µM in IC50? CCOC(=O)c1c(NC(=O)CSc2nnnn2-c2ccccc2OCC)sc2c1CC(C)(C)NC2(C)C
Result: label 0

Ask: Strictly below 7 µM in IC50? C/C(=N/NC(=O)c1cc(C2CC2)[nH]n1)c1cccs1
Result: label 1

Ask: Strictly below 7 µM in IC50? O=C1NC(=O)N(Cc2ccco2)C(=O)/C1=C/C=C/c1ccco1
Result: label 0

Ask: Strictly below 7 µM in IC50? CN(C)c1ccc(/C=C/c2ccc3ccccc3n2)cc1
Result: label 1

Ask: Strictly below 7 µM in IC50? CCOc1cccc2sc(N(CCCN(C)C)C(=O)c3ccc(S(=O)(=O)N(CC)Cc4ccccc4)cc3)nc12
Result: label 0

Ask: Strictly below 7 µM in IC50? COc1cccc(NC(=O)CN(C)C(=O)c2cccnc2Nc2cccc(C(F)(F)F)c2)c1
Result: label 0

Ask: Strictly below 7 µM in IC50? COc1cccc(C2CC3C(=O)C=CC2N3Cc2ccccc2)c1 (configuration not stated)
Result: label 0

Ask: Strictly below 7 µM in IC50? CC(C)c1ccc(NC(=O)Nc2nc(C(C)N)cs2)cc1 (configuration not stated)
Result: label 0

Ask: Strictly below 7 µM in IC50? COc1cc(NS(C)(=O)=O)ccc1Nc1c2ccccc2nc2ccccc12
Result: label 0

Ask: Strictly below 7 µM in IC50? CC(C)CC(N)c1csc(Nc2ccc(C(=O)c3ccccc3)cc2)n1 (configuration not stated)
Result: label 0

Ask: Strictly below 7 µM in IC50? Nc1ccc(-c2nc3ccc(C(=O)O)cc3s2)cc1
Result: label 1

Ask: Strictly below 7 µM in IC50? CC1=C(CC[C@@H](C)CO)OC2CC3C4CCC5CC(O)CCC5(C)C4CC(=O)C3(C)C12 (some centres not stated)
Result: label 0

Ask: Strictly below 7 µM in IC50? CNCC[C@H](Oc1cccc2ccccc12)c1cccs1
Result: label 0

Ask: Strictly below 7 µM in IC50? O=C(OCC(F)(F)F)c1cccc(COc2ccc3ccccc3c2)c1
Result: label 1

Ask: Strictly below 7 µM in IC50? CNC[C@H](CC1CCCCC1)NC[C@H](NCCC1CCCC1)[C@H](C)O
Result: label 0

Ask: Strictly below 7 µM in IC50? O=C(c1ccco1)N1CCN(c2ncnc3c2[nH]c2ccc(Br)cc23)CC1
Result: label 0

Ask: Strictly below 7 µM in IC50? O=c1c2ccccc2sc2ccc(C#CC3(O)CCCCC3)cc12
Result: label 1

Ask: Strictly below 7 µM in IC50? O=C(Nc1ccccc1)c1nc[nH]c1C(=O)NCCCNC(=O)c1[nH]cnc1C(=O)Nc1ccccc1
Result: label 0

Ask: Strictly below 7 µM in IC50? COC(=O)C1=C(C)N(Cc2ccccc2)C(=NCc2cccc(Cl)c2)N[C@H]1c1ccccc1
Result: label 0

Ask: Strictly below 7 µM in IC50? CCCOC(=O)c1cccc(Nc2nc(-c3cccnc3)nc3ccccc23)c1
Result: label 0

Ask: Strictly below 7 µM in IC50? COc1cccc(Nc2nc(C(N)C3CCCCC3)cs2)n1 (configuration not stated)
Result: label 0

Ask: Strictly below 7 µM in IC50? CN1C/C(=C/c2ccccc2[N+](=O)[O-])C(=O)/C(=C\c2ccccc2[N+](=O)[O-])C1
Result: label 1

Ask: Strictly below 7 µM in IC50? CN(Cc1ccccc1F)C(=O)C(Cc1ccccc1)NC(=O)c1ccccc1 (configuration not stated)
Result: label 0

Ask: Strictly below 7 µM in IC50? CCN(CC)CCn1c2ccccc2c2cnc(N)c(C#N)c21
Result: label 0

Ask: Strictly below 7 µM in IC50? COc1ccc(CC(N)c2csc(Nc3cccc(OC)n3)n2)cc1 (configuration not stated)
Result: label 0

Ask: Strictly below 7 µM in IC50? CN1OC[C@@H]2CN(S(=O)(=O)c3cccc(C(F)(F)F)c3)[C@H](c3ccc(-c4cc5ccccc5o4)cc3)C[C@@H]21
Result: label 0

Ask: Strictly below 7 µM in IC50? CCN(CC)S(=O)(=O)c1cccc(C(=O)N/N=C(\C)c2ccc(O)cc2O)c1
Result: label 1

Ask: Strictly below 7 µM in IC50? COC(=O)c1nn(-c2ccc3c(c2)CCN3C(C)=O)cc1O
Result: label 1

Ask: Strictly below 7 µM in IC50? Cc1cc(C(=O)COC(=O)C2=COCCO2)c(C)n1-c1ccccc1
Result: label 0

Ask: Strictly below 7 µM in IC50? Cc1cc(C)cc(NC(=O)Cn2c(=O)oc3cc(S(=O)(=O)N4CCC(C)CC4)ccc32)c1
Result: label 0

Ask: Strictly below 7 µM in IC50? CCN(CC)CCNC(=O)c1ccc(NC(=O)c2cccc(S(=O)(=O)N(C)C3CCCCC3)c2)cc1
Result: label 0

Ask: Strictly below 7 µM in IC50? NC(Cc1ccc(F)cc1)c1csc(Nc2cc(Oc3ccccc3)ncn2)n1 (configuration not stated)
Result: label 0

Ask: Strictly below 7 µM in IC50? O=S(=O)(Nc1cccc2cccnc12)c1ccccc1
Result: label 0

Ask: Strictly below 7 µM in IC50? CCN1C/C(=C/c2ccc(N3CCOCC3)cc2)C(=O)/C(=C/c2ccc(N3CCOCC3)cc2)C1
Result: label 0

Ask: Strictly below 7 µM in IC50? O=C(c1ccoc1)N1CCN(c2cc(-c3ccccc3)nc3cc(-c4ccccc4)nn23)CC1
Result: label 0

Ask: Strictly below 7 µM in IC50? O=C(/C=C/Nc1ccccc1Br)c1ccccn1
Result: label 1

Ask: Strictly below 7 µM in IC50? C/C(=N\NC(=O)c1n[nH]c2c1CCC2)c1cccs1
Result: label 1

Ask: Strictly below 7 µM in IC50? CCCCCc1ccc(OCCCC[n+]2cccc(C)c2)c(CCCCC)c1
Result: label 0

Ask: Strictly below 7 µM in IC50? COC(CNC(=O)c1ccc2c3c(onc13)-c1ccccc1C2=O)OC
Result: label 0

Ask: Strictly below 7 µM in IC50? Cc1ccc(-n2[nH]c(=O)c(-c3ccccn3)c2C)cc1
Result: label 1
